Numbers sourced from PubChem BioAssay (NCI).

test system: PC-3 prostate; experiment: NCI-60 one-dose screen, 48 h; conditions: 10 µM
This is part of a sample that, as a whole, favours compounds with a hit. Of some 83,000 tested, about 20% had one in any assay. The source made the active and inactive calls. How the source made its calls: active means growth percent below 10; inactive means the rest.
Possible outcomes: class 1 for active, class 0 for inactive

compound: CC[C@@]1(O)C(=O)OCc2c1cc1n(c2=O)Cc2c-1nc1cc(F)c(C)c3c1c2[C@@H](N)CC3
target.entity: PC-3 prostate
assigned.category: class 0

compound: CN1C(=O)N(C)C2SC(N/N=C/c3ccccc3F)=NC21 (stereo not given)
target.entity: PC-3 prostate
assigned.category: class 0

compound: CN1CCN(c2ccc(Nc3nc(NCCNC(=O)c4ccc(C(F)(F)F)cc4)c4sccc4n3)cc2)CC1
target.entity: PC-3 prostate
assigned.category: class 0

compound: O/N=C(\CSc1nnc(-c2c[nH]c3ccccc23)n1-c1ccccc1)c1ccc(Br)cc1
target.entity: PC-3 prostate
assigned.category: class 1

compound: O=c1nc(-c2ccccc2)cc(-c2cc3ccccc3nc2Cl)[nH]1
target.entity: PC-3 prostate
assigned.category: class 0

compound: O=C(c1ccccc1)n1ccc(-c2cc3cc(Br)ccc3oc2=O)n1
target.entity: PC-3 prostate
assigned.category: class 0

compound: O=C(Cc1ccc2c(c1)CN(C1CCC(=O)NC1=O)C2=O)NCCc1ccccc1 (stereo not given)
target.entity: PC-3 prostate
assigned.category: class 0

compound: NS(=O)(=O)c1ccc(N=Nc2c(O)n(CC(=O)Nc3ccccc3Br)c3ccccc23)cc1
target.entity: PC-3 prostate
assigned.category: class 0

compound: C#CCNC(=O)[C@]12CCC(C)(C)C[C@H]1C1=CC[C@@H]3[C@@](C)(CCC#N)[C@H](C(=C)C)CC[C@@]3(C)[C@]1(C)CC2
target.entity: PC-3 prostate
assigned.category: class 0

compound: COc1ccc(CN2[C@H](C(=O)NCCCCCCC(=O)NO)Cc3c([nH]c4ccccc34)[C@H]2C2CC2)cc1
target.entity: PC-3 prostate
assigned.category: class 0

compound: COc1ccc2[nH]c(=O)c(CSc3nccc(-c4ccc(Cl)cc4)n3)cc2c1
target.entity: PC-3 prostate
assigned.category: class 0

compound: Nc1nnc(-c2c[nH]c3ccc(F)cc23)c(-c2c[nH]c3ncccc23)n1
target.entity: PC-3 prostate
assigned.category: class 0

compound: O=C(Nc1nc2ccc([N+](=O)[O-])cc2s1)Nc1cc(Cl)ccc1I
target.entity: PC-3 prostate
assigned.category: class 1

compound: c1ccc(C(=C(c2ccc(OCCN3CCCCC3)cc2)c2ccc(OCCN3CCCCC3)cc2)C2CCCC2)cc1
target.entity: PC-3 prostate
assigned.category: class 1

compound: O=C(Nc1cccc(C(F)(F)F)c1)c1cncc(C#Cc2cnc3ccc(N4CCOCC4)nn23)c1
target.entity: PC-3 prostate
assigned.category: class 1
